Origin of measurements: patent US20140179745A1

- procedure_text: Thermodynamic solubility of regorafenib monohydrate in different solvents
- Format: physicochemical
- test_context: thermodynamic from solid, solvent Water
attribute_measured: solubility

Entry CNC(=O)c1cc(Oc2ccc(NC(=O)Nc3ccc(Cl)c(C(F)(F)F)c3)c(F)c2)ccn1 [regorafenib monohydrate] — recorded solubility = < 100 µg/mL
